# system-under-test: T1, rhNR10 (recombinant human NR10) (human, UniProt Q8NI17 20-519, limits assumed)
# T1 construct: also called IL-31 receptor; IL31RA
# T1 sequence: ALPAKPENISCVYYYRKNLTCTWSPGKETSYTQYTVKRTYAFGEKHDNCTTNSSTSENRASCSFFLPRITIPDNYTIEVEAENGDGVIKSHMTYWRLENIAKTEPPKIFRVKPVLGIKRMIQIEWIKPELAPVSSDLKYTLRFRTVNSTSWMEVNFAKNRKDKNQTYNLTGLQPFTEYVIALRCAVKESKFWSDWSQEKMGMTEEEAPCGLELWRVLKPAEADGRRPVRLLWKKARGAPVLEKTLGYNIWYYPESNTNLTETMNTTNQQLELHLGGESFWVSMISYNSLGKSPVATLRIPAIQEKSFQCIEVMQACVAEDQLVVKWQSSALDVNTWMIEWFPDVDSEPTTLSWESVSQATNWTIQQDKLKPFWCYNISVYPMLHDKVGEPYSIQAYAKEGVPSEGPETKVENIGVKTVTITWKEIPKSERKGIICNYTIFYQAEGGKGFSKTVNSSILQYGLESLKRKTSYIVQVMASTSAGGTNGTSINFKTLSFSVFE
# assay-remarks: SPR, Biacore T100; antibody captured on Protein A, rhNR10 as analyte
parameter: koff

In the examples that follow, each entry is paired with its recorded koff.
binder="H98L50 (H98-M58 / L50) (antibody, V domains shown) VH: QVQLVQSGAEVKKPGASVKVSCKASGYTFTGYIMNWVRQAPGQGLEWMGLINPYNGGTSYNQQFQDRVTITADKSTSTAYMELSSLRSEDTAVYYCARDGYDDGPYTLETWGQGTLVTVSS VL: DIQMTQSPSSLSASVGDRVTITCQASEDIYSFLAWYQQKPGKAPKLLIYNAQTEAQGVPSRFSGSGSGTDFTLTISSLQPEDFATYYCQHHYDSPLTFGGGTKVEIKR" parameter=koff measurement="0.0013 s⁻¹"
binder="H28L17 (H28-M58 / L17) (antibody, V domains shown) VH: QVQLVQSGAEVKKPGASVKVSCKASGYTFTGYVLNWVRQAPGQGLEWMGLINPYNGGTDYNPQFQDRVTITADESTSTAYMELSSLRSEDTAVYYCARDGYDDGPYTLETWGQGTLVTVSS VL: DIQMTQSPSSLSASVGDRVTITCQASEDIYSFVAWYQQKPGKAPKLLIYNAQTEAQGVPSRFSGSGSGTDFTLTISSLQPEDFATYYCQHHYDSPLTFGGGTKVEIKR" parameter=koff measurement="0.00033 s⁻¹"

Continue with the next binder.
input: Look up and report measured koff for this entry: H78L17 (H78-M58 / L17) (antibody, V domains shown) VH: QVQLVQSGAEVKKPGASVKVSCKASGYTFTGYIMNWVRQAPGQGLEWMGLINPYNGGTDYNPQFQGRVTITADKSTSTAYMELSSLRSEDTAVYYCARDGYDDGPYTLETWGQGTLVTVSS VL: DIQMTQSPSSLSASVGDRVTITCQASEDIYSFVAWYQQKPGKAPKLLIYNAQTEAQGVPSRFSGSGSGTDFTLTISSLQPEDFATYYCQHHYDSPLTFGGGTKVEIKR
output: 0.0007 s⁻¹

Where these numbers come from: patent US20110129459A1
